Collected gain in LiTR IC50 with respect to 5 values appear next to each entry.
study_target: Leishmania infantum TR (LiTR) (Leishmania infantum)
Construct: The TbTR and LiTR genes were subcloned in a pET28b vector; 6-His (cleaved yes); made in house; host or cells: E. coli BL21(DE3), pET28b
Sequence (A4HSF7 1-491): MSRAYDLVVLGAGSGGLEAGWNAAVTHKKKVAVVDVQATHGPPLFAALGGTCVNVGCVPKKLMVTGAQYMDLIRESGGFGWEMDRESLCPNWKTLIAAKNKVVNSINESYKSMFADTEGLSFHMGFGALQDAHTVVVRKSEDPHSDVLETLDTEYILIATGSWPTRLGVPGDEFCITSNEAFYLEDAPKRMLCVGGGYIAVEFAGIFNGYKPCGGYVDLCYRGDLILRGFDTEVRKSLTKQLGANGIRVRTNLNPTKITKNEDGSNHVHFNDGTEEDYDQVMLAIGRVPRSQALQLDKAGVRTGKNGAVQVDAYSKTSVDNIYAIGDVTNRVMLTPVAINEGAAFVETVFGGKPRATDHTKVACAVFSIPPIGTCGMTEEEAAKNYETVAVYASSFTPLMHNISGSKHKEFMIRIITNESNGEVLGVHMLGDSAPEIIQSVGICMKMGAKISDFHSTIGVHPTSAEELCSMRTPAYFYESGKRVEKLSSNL
assay_info: LiTR enzymatic inhibition assay (NADPH oxidation at 340 nm)
Type: biochemical
test_parameters: compared to compound 5 (IC50 54.6 μM)
readout_label: gain in LiTR IC50 with respect to 5 (fold)

> print(dat)
                                   compound  reported.value
1  O=C(NCCc1ccc(F)cc1)c1ccc(CN(C(=O)N2CC[N+](CCCc3ccccc3)(Cc3ccc(Cl)c(Cl)c3)CC2)c2ccc(F)cc2)o1.[I-] [Compound 10]              42
2  O=C(NCCc1ccc(F)cc1)c1ccc(CNC(=O)N2CC[N+](CCCc3ccccc3)(Cc3ccc(Cl)c(Cl)c3)CC2)o1.[I-] [Compound 14]              23

----------
study_target: hGR (human glutathione reductase) (Homo sapiens)
Construct: purchased Sigma-Aldrich
Sequence (P00390 44-522): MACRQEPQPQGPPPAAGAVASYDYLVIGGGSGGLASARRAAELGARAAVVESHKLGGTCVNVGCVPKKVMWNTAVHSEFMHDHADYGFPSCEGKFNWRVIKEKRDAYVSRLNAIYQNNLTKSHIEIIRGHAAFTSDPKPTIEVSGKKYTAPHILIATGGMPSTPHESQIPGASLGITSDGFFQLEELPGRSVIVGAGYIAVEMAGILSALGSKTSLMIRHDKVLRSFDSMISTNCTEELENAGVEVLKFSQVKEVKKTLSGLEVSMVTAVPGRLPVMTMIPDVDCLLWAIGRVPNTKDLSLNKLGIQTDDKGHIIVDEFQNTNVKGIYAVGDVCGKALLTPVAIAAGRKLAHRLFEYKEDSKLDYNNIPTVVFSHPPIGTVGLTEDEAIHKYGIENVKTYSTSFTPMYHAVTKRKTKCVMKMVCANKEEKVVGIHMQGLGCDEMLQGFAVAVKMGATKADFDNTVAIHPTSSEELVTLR
assay_info: hGR enzymatic inhibition assay (NADPH oxidation at 340 nm)
Type: biochemical
test_parameters: 50 nM hGR, 100 μM NADPH, 25 °C
Reported log10 of IC50 values for the following compounds.
readout_label: log10 of IC50 (log10 of the value in µM)

> print(dat)
                                   compound  readout.label  reported.value
1  O=C(NCCc1ccc(F)cc1)c1ccc(CN(C(=O)N2CC[N+](CCCc3ccccc3)(Cc3ccc(Cl)c(Cl)c3)CC2)c2ccc(F)cc2)o1.[I-] [Compound 10]  log10 of IC50            0.36
2  O=C(NCCc1ccc(F)cc1)c1ccc(CN(C(=O)N2CCN(CCCc3ccccc3)CC2)c2ccc(F)cc2)o1 [Compound 5]  log10 of IC50            2.21
3  O=C(NCCc1ccc(F)cc1)c1ccc(CN(C(=O)N2CCN(CCCN3c4ccccc4Sc4ccc(Cl)cc43)CC2)c2ccc(F)cc2)o1 [Compound 6]  log10 of IC50            0.98
4  O=C(NCCc1ccc(F)cc1)c1ccc(CNC(=O)N2CC[N+](CCCc3ccccc3)(Cc3ccc(Cl)c(Cl)c3)CC2)o1.[I-] [Compound 14]  log10 of IC50            0.57
5  C[N+]1(CCCc2ccccc2)CCN(C(=O)N(Cc2ccc(C(=O)NCCc3ccc(F)cc3)o2)c2ccc(F)cc2)CC1.[I-] [Compound 9]  log10 of IC50            1.80

Entry source: paper PMC10788915
